B1: CPEB3 Ribozyme (parent)
chain: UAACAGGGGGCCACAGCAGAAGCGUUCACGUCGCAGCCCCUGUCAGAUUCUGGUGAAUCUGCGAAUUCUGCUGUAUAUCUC

- Variants of: B1
- PROTOCOL: self-cleavage, relative activity (ratio to wild type); higher = more cleavage; in vitro, sequencing
Classify as follows. Reported self-cleavage greater than or equal to 0.4: 1. Reported self-cleavage below: 0.

# MUT, CATEGORY_LABEL
data = [
    ("G9U A56G", 0),
    ("C59G U78C", 0),
    ("U26G A75G", 0),
    ("A15G A21U", 0),
    ("A3C U43C", 1),
    ("A13G A57U", 1),
    ("A15U A18G", 0),
    ("A47G U80C", 1),
    ("U31C U66G", 0),
    ("A3C U31G", 1),
    ("U1A A13G", 1),
    ("C38A A56G", 0),
    ("C62U U78A", 0),
    ("A18U G73C", 1),
    ("G8A G33U", 0),
    ("C62G C71U", 0),
    ("A18G C34G", 0),
    ("A13G G53A", 1),
    ("U58A U80C", 1),
    ("U60A U67C", 0),
    ("U25G U51A", 0),
    ("U31C A64U", 0),
    ("C44G A57G", 1),
    ("U54G U69A", 1),
    ("U43C U78A", 1),
    ("U1C U80A", 1),
    ("A28U C50G", 1),
    ("U43A G73U", 1),
    ("G10C A35G", 0),
    ("G6A U54A", 0),
    ("U49A U72A", 1),
    ("A3C U74A", 1),
    ("A20C C29U", 0),
    ("A2G C62U", 0),
    ("A15U", 1),
    ("C4A U80A", 1),
    ("G9U A28G", 0),
    ("A2C U48C", 1),
    ("G30C U67G", 0),
    ("U43A U54C", 1),
    ("U74C C79G", 1),
    ("A35U A65U", 0),
    ("G7U U72G", 0),
]
